All values here come from ChEMBL document CHEMBL3885861.

In this section, each of the compounds is paired with its reported Ca.
- Organism: Rattus norvegicus
- TEST_METHOD_NOTES: Open TG-GATES - Regimen: Single
- Assay type: toxicity, organism-based, Sprague-Dawley
- Parameters: regimen Single, gender Male, age 6 weeks
- CONDITION: in vivo, po, 0 mg/kg, 6 h, tissue Plasma, route gavage, dose level Control

# COMPOUND, UNITS_SYMBOL, Ca
data = [
    ("C#C[C@]1(O)CC[C@H]2[C@@H]3CCc4cc(O)ccc4[C@H]3CC[C@@]21C [ETHINYL ESTRADIOL]", "mg/dL", 10.8),
    ("CCSCC[C@H](N)C(=O)O [ETHIONINE]", "mg/dL", 10.4),
    ("CC(=N)S [THIOACETAMIDE]", "mg/dL", 10.2),
    ("Nc1nc(N)c2nc(-c3ccccc3)c(N)nc2n1", "mg/dL", 10.8),
    ("O=C(O)c1cccnc1 [NIACIN]", "mg/dL", 10.8),
    ("CC(=O)Oc1cc(C(C)C)c(OCCN(C)C)cc1C [MOXISYLYTE]", "mg/dL", 10.6),
    ("O=C(N[C@H](CO)[C@H](O)c1ccc([N+](=O)[O-])cc1)C(Cl)Cl [CHLORAMPHENICOL]", "mg/dL", 11.6),
    ("CN1C(=O)OC(C)(C)C1=O [TRIMETHADIONE]", "mg/dL", 10.5),
    ("CC(C)C(=O)Nc1ccc([N+](=O)[O-])c(C(F)(F)F)c1 [FLUTAMIDE]", "mg/dL", 10.7),
    ("CCc1oc2ccccc2c1C(=O)c1cc(I)c(O)c(I)c1 [BENZIODARONE]", "mg/dL", 10.6),
    ("CCN1CCCC1CNC(=O)c1cc(S(N)(=O)=O)ccc1OC (stereo unspecified) [SULPIRIDE]", "mg/dL", 10.7),
    ("Oc1ncnc2[nH]ncc12 [ALLOPURINOL]", "mg/dL", 11.1),
    ("C[C@]12CCC(=O)C=C1CC[C@@H]1[C@@H]2CC[C@@]2(C)[C@H]1CC[C@]2(C)O [METHYLTESTOSTERONE]", "mg/dL", 10.8),
    ("CCC(C)(C)C(=O)O[C@H]1C[C@@H](C)C=C2C=C[C@H](C)[C@H](CC[C@@H]3C[C@@H](O)CC(=O)O3)[C@H]21 [SIMVASTATIN]", "mg/dL", 10.8),
    ("CC(C)(S)[C@@H](N)C(=O)O [PENICILLAMINE]", "mg/dL", 11),
    ("C[C@](N)(Cc1ccc(O)c(O)c1)C(=O)O [METHYLDOPA]", "mg/dL", 11.2),
]

* * *

- Organism: Rattus norvegicus
- TEST_METHOD_NOTES: Open TG-GATES - Regimen: Daily Repeat
- Format: toxicity, organism-based, Sprague-Dawley
- Parameters: regimen Daily Repeat, gender Male, age 6 weeks
- CONDITION: in vivo, po, 100 mg/kg, 72 h, tissue Blood, route gavage, dose level Low, time 3 day

# COMPOUND, Lym, %
rows = [
    ("CCN1CCCC1CNC(=O)c1cc(S(N)(=O)=O)ccc1OC (centres undefined) [SULPIRIDE]", 74.8),
    ("O=C(N[C@H](CO)[C@H](O)c1ccc([N+](=O)[O-])cc1)C(Cl)Cl [CHLORAMPHENICOL]", 79.4),
    ("CC(C)(S)[C@@H](N)C(=O)O [PENICILLAMINE]", 78.8),
    ("O=C(O)c1cccnc1 [NIACIN]", 70.2),
]
